- System: nightshade (eastern black nightshade, Solanum ptycanthum)
- Assay Explanation: Test C preemergence, plant response rating
- Format: in vivo
- Assay Conditions: 31 g ai/ha, scale 0 to 100
Assay Endpoint: Plant response rating, Nightshade
The reply should be a number, written without any unit.

Solved entries:
N#Cc1cccc(Oc2ncc(Cl)cn2)c1COCCC(F)(F)F [Compound 80] = 70
N#CC(CCCC(F)(F)F)c1ccccc1Oc1ncc(Cl)cn1 (stereo not shown) [Compound 144] = 65
FC(F)(F)CCCc1c(Br)cccc1Oc1ncc(Cl)cn1 [Compound 89] = 75

From here, focus on the item given below.
Fill in: Plant response rating, Nightshade of O=C(CCCCC(F)(F)F)c1c(Br)cccc1Oc1ncc(Cl)cn1 [Compound 82] is ___
20

----------
- Tested on: pigweed, palmer (palmer pigweed, Amaranthus palmeri)
- Assay Explanation: Test C preemergence, plant response rating
- Type: in vivo
- Assay Conditions: 62 g ai/ha, scale 0 to 100
Assay Endpoint: Plant response rating, Pigweed, Palmer
The reply should be a number, written without any unit.

Solved entries:
N#CC(CCCC(F)(F)F)c1ccccc1Oc1ncc(Cl)cn1 (stereo not shown) = 100
FC(F)(F)CCCc1c(Br)cccc1Oc1ncc(Cl)cn1 = 90
CCCC(=O)c1c(Oc2ncc(Cl)cn2)cccc1C(F)(F)F = 100

Fill in: Plant response rating, Pigweed, Palmer of O=C(CCC(F)(F)F)c1c(Cl)cccc1Oc1ncc(Cl)cn1 is ___
100

----------
// reported pest or weed control at 500 g/ha for each item listed
- Test system: giant foxtail (Setaria faberii)
- Assay Explanation: Test A preemergence, visual injury rating
- Format: in vivo
- Assay Conditions: Setaria faberi, pre-emergence, 240 h, 500 g ai/ha, 0 to 100 scale (0 no effect, 100 complete control), read-out: Foxtail, Giant plant response rating
- Excerpt: […]
Report as a plain number; the unit % is understood.

Solved entries:
CCCOC(=O)c1c(Br)cccc1Oc1ncc(Cl)cn1 = 100
O=C(NCC(F)(F)F)c1ccccc1Oc1ncc(Cl)cn1 = 20
N#Cc1cccc(Oc2ncc(Cl)cn2)c1CCCCC(F)(F)F = 100
O=C(OCC(F)(F)C(F)(F)F)c1c(Br)cccc1Oc1ncc(Cl)cn1 = 100

From here, focus on the item given below.
Fill in: pest or weed control at 500 g/ha of CC(CC(F)(F)F)OC(=O)c1c(Br)cccc1Oc1ncc(Cl)cn1 (centres unmarked) is ___
100

----------
- Test system: corn (Zea mays)
- Assay Explanation: Test A postemergence, visual injury rating
- Type: in vivo
- Assay Conditions: 500 g ai/ha, 0 is no effect, 100 is complete control
Assay Endpoint: Corn plant response rating (0 to 100 scale)

Solved entries:
N#CCOC(=O)c1c(Br)cccc1Oc1ncc(Cl)cn1 = 20
N#Cc1cccc(Oc2ncc(Cl)cn2)c1C(=O)OCC(F)(F)F = 0
O=C(OCCC(F)(F)F)c1c(F)cccc1Oc1ncc(Cl)cn1 = 30

From here, focus on the item given below.
Fill in: Corn plant response rating (0 to 100 scale) of N#Cc1cccc(Oc2ncc(Cl)cn2)c1CCCC(F)(F)F is ___
60

----------
- System: kochia (Kochia scoparia)
- Assay Explanation: Test C postemergence, plant response rating
- Assay type: in vivo
- Assay Conditions: Bassia scoparia, post-emergence, 31 g ai/ha, scale 0 to 100
// reported pest or weed control at 31 g/ha for each item listed
Report as a plain number; the unit % is understood.

Solved entries:
O=C(OCCC(F)(F)F)c1c(Br)cccc1Oc1ncc(Cl)cn1 [Compound 26] = 90
O=C(OCC(F)(F)C(F)(F)F)c1c(Br)cccc1Oc1ncc(Cl)cn1 [Compound 23] = 50
CC(CC(F)(F)F)OC(=O)c1c(Br)cccc1Oc1ncc(Cl)cn1 (stereo not shown) [Compound 16] = 50

From here, focus on the item given below.
Fill in: pest or weed control at 31 g/ha of O=C(OCCC(F)(F)F)c1c(Cl)cccc1Oc1ncc(Cl)cn1 [Compound 15] is ___
95

----------
- Tested on: windgrass (Apera spica-venti)
- Assay Explanation: Test C postemergence, plant response rating
- Format: in vivo
- Assay Conditions: 31 g ai/ha, scale 0 to 100
Assay Endpoint: Plant response rating, Windgrass
The reply should be a number, written without any unit.

CCCC(=O)c1c(Br)cccc1Oc1ncc(Cl)cn1 = 5
FC(F)(F)CCCCc1c(Cl)cccc1Oc1ncc(Cl)cn1 = 10
O=C(CCC(F)(F)C(F)(F)F)c1c(Br)cccc1Oc1ncc(Cl)cn1 = 25
FC(F)(F)CCCCc1c(Br)cccc1Oc1ncc(Cl)cn1 = 15

Fill in: Plant response rating, Windgrass of O=C(CCCC(F)(F)F)c1c(Cl)cccc1Oc1ncc(Cl)cn1 is ___
35

Fill in: Plant response rating, Windgrass of O=C(CCCC(F)(F)F)c1c(Oc2ncc(Cl)cn2)cccc1C(F)(F)F is ___
15

----------
// reported Canada Thistle plant response rating for each item listed
- System: Canada thistle (Cirsium arvense)
- Assay Explanation: Test C postemergence, plant response rating
- Type: in vivo
- Assay Conditions: 125 g ai/ha, scale 0 to 100 (0 no effect, 100 complete control)
The reply should be a number, written without any unit.

FC(F)(F)CCCCc1c(Br)cccc1Oc1ncc(Cl)cn1 = 95
O=C(CCCC(F)(F)F)c1c(Oc2ncc(Cl)cn2)cccc1C(F)(F)F = 90
O=C(CCCC(F)(F)F)c1c(Cl)cccc1Oc1ncc(Cl)cn1 = 100

Fill in: Canada Thistle plant response rating of O=C(CCCCC(F)(F)F)c1c(Br)cccc1Oc1ncc(Cl)cn1 is ___
98

Fill in: Canada Thistle plant response rating of O=C(CCC(F)(F)F)c1c(Cl)cccc1Oc1ncc(Cl)cn1 is ___
90

----------
// reported Lambsquarters plant response rating for each item listed
- System: lambsquarters (Chenopodium album)
- Assay Explanation: Test C postemergence, plant response rating
- Format: in vivo
- Assay Conditions: 62 g ai/ha, scale 0 to 100 (0 no effect, 100 complete control)

Solved entries:
CCCC(=O)c1c(Oc2ncc(Cl)cn2)cccc1C(F)(F)F = 80
O=C(OCC(F)(F)F)c1c(Br)cccc1Oc1ncc(Cl)cn1 = 65
N#Cc1cccc(Oc2ncc(Cl)cn2)c1CCCC(F)(F)F = 75
O=C(CCCC(F)(F)F)c1c(Oc2ncc(Cl)cn2)cccc1C(F)(F)F = 95

Fill in: Lambsquarters plant response rating of CCCCC(=O)c1c(Br)cccc1Oc1ncc(Cl)cn1 is ___
90

----------
- System: lambsquarters (Chenopodium album)
- Assay Explanation: Test C preemergence, plant response rating
- Assay type: in vivo
- Assay Conditions: Preemergence, 125 g ai/ha; scale of 0 to 100
Assay Endpoint: Plant response rating, Lambsquarters
The reply should be a number, written without any unit.

Solved entries:
N#CC(CCCC(F)(F)F)c1ccccc1Oc1ncc(Cl)cn1 (centres unmarked) = 75
O=C(CCCC(F)(F)F)c1c(Cl)cccc1Oc1ncc(Cl)cn1 = 95
O=C(CCC(F)(F)F)c1c(Br)cccc1Oc1ncc(Cl)cn1 = 100
FC(F)(F)CCCCc1c(Br)cccc1Oc1ncc(Cl)cn1 = 70

Fill in: Plant response rating, Lambsquarters of C=C(Br)COC(=O)c1c(Br)cccc1Oc1ncc(Cl)cn1 is ___
60

----------
- System: barnyardgrass (Echinochloa crus-galli)
- Assay Explanation: Test A preemergence, visual injury rating
- Assay type: in vivo
- Assay Conditions: 500 g ai/ha, 0 to 100 scale (0 no effect, 100 complete control)
Assay Endpoint: Barnyardgrass plant response rating
The reply should be a number, written without any unit.

O=C(OCCC(F)(F)F)c1ccccc1Oc1ncc(Cl)cn1 = 0

Fill in: Barnyardgrass plant response rating of O=C(OCC(F)(F)F)c1c(F)cccc1Oc1ncc(Cl)cn1 is ___
10

----------
- System: Italian ryegrass (Lolium multiflorum)
- Assay Explanation: Test A preemergence, visual injury rating
- Type: in vivo
- Assay Conditions: 125 g ai/ha, 0 to 100 scale (0 no effect, 100 complete control)
Assay Endpoint: Ryegrass, Italian plant response rating
The reply should be a number, written without any unit.

O=C(OCC(Cl)(Cl)Cl)c1c(Br)cccc1Oc1ncc(Cl)cn1 = 0

Fill in: Ryegrass, Italian plant response rating of CC(C)(C)CCOC(=O)c1c(Br)cccc1Oc1ncc(Cl)cn1 is ___
0

Fill in: Ryegrass, Italian plant response rating of O=C(OCC1CC1(F)F)c1c(Br)cccc1Oc1ncc(Cl)cn1 (stereo not shown) is ___
10

Fill in: Ryegrass, Italian plant response rating of O=C(OCC(F)(F)F)c1c(Br)cccc1Oc1ncc(Cl)cn1 is ___
0

Fill in: Ryegrass, Italian plant response rating of O=C(OC(CCl)CCl)c1c(Br)cccc1Oc1ncc(Cl)cn1 is ___
0

Fill in: Ryegrass, Italian plant response rating of COc1cccc(Oc2ncc(Cl)cn2)c1C(C)=O is ___
0

Fill in: Ryegrass, Italian plant response rating of O=C(OCCC(F)(F)F)c1cc(Cl)ccc1Oc1ncc(Cl)cn1 is ___
0

Fill in: Ryegrass, Italian plant response rating of O=C(OCC(F)(F)F)c1c(Br)cccc1Oc1ncc(Br)cn1 is ___
0

Fill in: Ryegrass, Italian plant response rating of CC(=NOC(C)C)c1c(C#N)cccc1Oc1ncc(Cl)cn1 is ___
0

Fill in: Ryegrass, Italian plant response rating of FC(F)(F)C(F)(F)COCc1c(Br)cccc1Oc1ncc(Cl)cn1 is ___
0

Fill in: Ryegrass, Italian plant response rating of C#CCCOC(=O)c1c(Br)cccc1Oc1ncc(Cl)cn1 is ___
0

Fill in: Ryegrass, Italian plant response rating of N#Cc1cccc(Oc2ncc(Cl)cn2)c1C(=O)OCC(F)(F)F is ___
0
